Cited source: ChEMBL document CHEMBL2086392

procedure_details: Solubility of the compound in 10% DMSO
Type: physicochemical

- molecule: "O=C(N[C@@H]1CO[C@H]2[C@@H]1OC[C@H]2OCc1ccccc1)/C(=C/c1ccc(F)cc1)NC(=O)c1ccccc1 (stereo in doubt)"
  solubility: "Insoluble"
- molecule: "O=C(N[C@@H]1CO[C@H]2[C@@H]1OC[C@H]2OCc1ccccc1)/C(=C/c1ccc(Cl)cc1)NC(=O)c1ccccc1 (stereo in doubt)"
  solubility: "Insoluble"
- molecule: "O=C(N[C@@H]1CO[C@H]2[C@@H]1OC[C@H]2OCc1ccccc1)/C(=C/c1ccc2ccccc2c1)NC(=O)c1ccccc1"
  solubility: "Insoluble"
- molecule: "O=C(N[C@@H]1CO[C@H]2[C@@H]1OC[C@H]2OCc1ccccc1)/C(=C/c1c[nH]c2ccccc12)NC(=O)c1ccccc1 (stereo in doubt)"
  solubility: "Insoluble"
